Assay: Partition coefficient (logD) (octanol/citric acid-phosphate buffer)
*1 amine or outer side, *2 acyl side, *3 side chain or, on linkers, in order; H or OH if unused. Where a SMILES comes first, the peptide text is derived from it. [ ]: non-standard residue; d: D form. The star is where a group is joined. ξ: configuration not given here. Sta = CC(C)C[C@H](N)[C@@H](O)CC(=O)O; X1 = CC(C)CC(N[*:1])C(O)CC(=O)[*:2]; ξPhg = NC(C(=O)O)c1ccccc1; Boc = CC(C)(C)OC(=O)*; NHBn = c1ccc(CN*)cc1
result-type: logD

CC(C)C[C@H](NC(=O)C[C@H](O)[C@H](CC(C)C)NC(=O)[C@H](Cc1c[nH]cn1)NC(=O)[C@H](Cc1ccccc1)NC(=O)OC(C)(C)C)C(=O)NCc1ccccc1 (Boc-FH[Sta]L-NHBn) :: > 2
CC(C)CC(NC(=O)[C@H](Cc1cnc[nH]1)NC(=O)[C@H](Cc1ccccc1)NC(=O)OC(C)(C)C)C(O)CC(=O)N[C@@H](CC(C)C)C(=O)NCCCN(CCO)CCO (stereo not given in full) :: 1.4
CC(C)C[C@H](NC(=O)CC(O)C(CC1CCCCC1)NC(=O)[C@H](Cc1c[nH]cn1)NC(=O)[C@H](Cc1ccccc1)NC(=O)OC(C)(C)C)C(=O)NCc1cccc(CN=C(N)N)c1 (stereo not given in full) :: > 2
CC(C)CC(NC(=O)[C@H](Cc1c[nH]cn1)NC(=O)[C@H](Cc1ccccc1)NC(=O)OC(C)(C)C)C(O)CC(=O)N[C@@H](CC(C)C)C(=O)NC(C(=O)O)c1ccccc1 (stereo not given in full) (Boc-FH[X1]L[ξPhg]-OH) :: 1.22
CC(C)CC(NC(=O)[C@H](Cc1c[nH]cn1)NC(=O)[C@H](Cc1ccccc1)NC(=O)OC(C)(C)C)C(O)CC(=O)N[C@@H](CC(C)C)C(=O)NC(Cc1cccc(CN)c1)C(=O)O (stereo not given in full) :: 1.83
